Here the recorded Ratio/Fc-H is given for each entry.
- MEASURED_ON: T1, FcRn-p3 fusion protein (human, UniProt P55899 24-297; P61769 21-119)
- T1 construct: baculovirus expressed; coated on ELISA wells; not shown: amino terminal part of bacteriophage p3 protein and CVDE protein
- EXPERIMENTAL_PROTOCOL: phage ELISA pH6
Numbers only here, please. The scale is fold.

- BINDER: "C4A_45 (other, EU numbering) CPPCPAPELLGGPSVFLFPPRPKDTLMISRTPEVTCVVVDVSHEDPEVKFNWYVDGVEVYNAKTKPREEQYNSTYRVVSVLTVLHQDWLDGKEYKCKVSNKALPVPIEKTISKAKGQPREPQVYTLPPSRDELTKNQVSLTCLVKGFYPSDIAVEWESNGQPENNYKTTPPVLDSDGSFFLYSKLTVDKSRWQQGNVFSCSVMHEALHYHYTQKSLSLSPGK"
  VAL: 2.3
- BINDER: "M3A_18 (other, EU numbering) CPPCPAPELLGGPSVFLFPPKPKDTLMISRTPEVTCVVVDVSHEDPEVKFNWYVDGVEVHNAKTKPREEQYNSTYRVVSVLPVLHQDWLNGKEYKCKVSNKALPAPIEKTISKAKGQPREPQVYTLPPSRDELTKNQVSLTCLVKGFYPSDIVVEWESNGQPENNYKTTPPVLDSDGSFFLYSKLTVDKSRWQQGTVFSCSVMHEALHNHYTQKSLSLSPGK"
  VAL: 1.9
- BINDER: "T5A_29 (other, EU numbering) CPPCPAPELLGGPSVFLFPPKPKDTLMISRTPEVTCVVVDVSHEDPEVKFNWYVDGVEVHNAKTKPREEQYNSTYRVVSVLTVLHQDWLDGKEYKCKVSNKALPAPIEKTISKAKGQPREPQVYTLPPSRDELTKNQVSLTCLVKGFYPSDIAVEWVSNGQPENNYKTTPPVLDSDGSFFLYSKLTVDKSRWQQGNVFSCSVMHEALHYHYTQKSLSLSPGK"
  VAL: 1.9
- BINDER: "C7A_13 (other, EU numbering) CPPCPAPELLGGPSVLLFPPKPKDTLMISRTPEVTCVVEDVSHEDPEVKFNWYVDGVEVHNAKTKPREEQYNSTYRVVSVLTVLHQDWLNGKEYKCKVSNKALPAPIEKTISKAKGQPREPQVYTLPPSRDELTKNQVSLTCLVKGFYPSDIVVEWESNGQPENNYKTTPPVLDSDGSFFLYSKLTVDKSRWQQGTVFSCSVMHEALHYHYTQKSLSLSPGK"
  VAL: 2.3

Alright, here's another binder for you.
Task: Returns the measured Ratio/Fc-H for the input binder. Input: T5A_28 (other, EU numbering) CPPCPAPELLGGPSVLLFPPKPKDTLMISRTPEVTCVVEDVSHEDPEVKFNWYVDGVEVHNAKTKPREEQYNSTYRVVSVLTVLHQDWLNGKEYKCKVSNKALPAPIEKTISKAKGQPREPQVYTLPPSRDELTKNQVSLTCLVKGFYPSDIVVEWESNGQPENNYKTTPPVLDSDGSFFLYSKLTVDKSRWQQGNVFSCSVMHEALHYHYTQKSLSLSPGK
Result: 2.5

All values here come from patent USRE46585.
